Taken from paper PMC12680861.

# test-target: CYP1A2 (Homo sapiens, UniProt P05177)
# Sequence (P05177 whole entry): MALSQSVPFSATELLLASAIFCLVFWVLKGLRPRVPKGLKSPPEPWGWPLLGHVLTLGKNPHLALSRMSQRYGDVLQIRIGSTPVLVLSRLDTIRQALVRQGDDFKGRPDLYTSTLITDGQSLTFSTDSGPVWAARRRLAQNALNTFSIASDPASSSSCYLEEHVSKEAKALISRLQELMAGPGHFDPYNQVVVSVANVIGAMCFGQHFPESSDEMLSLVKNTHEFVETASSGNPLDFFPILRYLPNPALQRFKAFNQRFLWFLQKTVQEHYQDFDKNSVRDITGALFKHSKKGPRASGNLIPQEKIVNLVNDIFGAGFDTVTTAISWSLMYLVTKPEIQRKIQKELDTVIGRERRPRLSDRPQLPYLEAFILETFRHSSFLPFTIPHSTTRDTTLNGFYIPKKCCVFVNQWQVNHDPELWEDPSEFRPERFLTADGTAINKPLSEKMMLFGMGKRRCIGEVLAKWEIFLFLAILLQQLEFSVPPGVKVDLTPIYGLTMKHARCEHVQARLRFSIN
# experimental-protocol: CYP enzyme inhibition in pooled human liver microsomes (phenacetin substrate)
# condition-description: human, pooled human liver microsomes, pH 7.4
# Experimental: Cytochrome 450 (CYP) enzyme inhibition was evaluated using pooled human liver microsomes (Corning, #452117). […] Samples were preincubated at 37 °C for 5 min, and the reaction was initiated by the addition of the NADPH regeneration system, followed by incubation at 37 °C for 15 min. […] The supernatant was analyzed by LC–MS/MS using a Nexera XR system (Shimadzu, Japan) coupled with a TSQ Vantage mass spectrometer (Thermo, USA). […]
experimental-readout: activity at 15 min, 10 µM
Write the figure, then the unit, nothing else.

Ask: Endpoint output: activity at 15 min, 10 µM of CC(=O)N1CCN(c2ccc(OCC3COC(Cn4ccnc4)(c4ccc(Cl)cc4Cl)O3)cc2)CC1 (stereo not shown) [Ketoconazole, ketoconazole, reference compound] . Value?
Result: 98.3%
